study.system: Aminopeptidase N (Plasmodium falciparum (isolate 3D7)) (UniProt O96935)
Sequence (O96935 whole entry, looked up): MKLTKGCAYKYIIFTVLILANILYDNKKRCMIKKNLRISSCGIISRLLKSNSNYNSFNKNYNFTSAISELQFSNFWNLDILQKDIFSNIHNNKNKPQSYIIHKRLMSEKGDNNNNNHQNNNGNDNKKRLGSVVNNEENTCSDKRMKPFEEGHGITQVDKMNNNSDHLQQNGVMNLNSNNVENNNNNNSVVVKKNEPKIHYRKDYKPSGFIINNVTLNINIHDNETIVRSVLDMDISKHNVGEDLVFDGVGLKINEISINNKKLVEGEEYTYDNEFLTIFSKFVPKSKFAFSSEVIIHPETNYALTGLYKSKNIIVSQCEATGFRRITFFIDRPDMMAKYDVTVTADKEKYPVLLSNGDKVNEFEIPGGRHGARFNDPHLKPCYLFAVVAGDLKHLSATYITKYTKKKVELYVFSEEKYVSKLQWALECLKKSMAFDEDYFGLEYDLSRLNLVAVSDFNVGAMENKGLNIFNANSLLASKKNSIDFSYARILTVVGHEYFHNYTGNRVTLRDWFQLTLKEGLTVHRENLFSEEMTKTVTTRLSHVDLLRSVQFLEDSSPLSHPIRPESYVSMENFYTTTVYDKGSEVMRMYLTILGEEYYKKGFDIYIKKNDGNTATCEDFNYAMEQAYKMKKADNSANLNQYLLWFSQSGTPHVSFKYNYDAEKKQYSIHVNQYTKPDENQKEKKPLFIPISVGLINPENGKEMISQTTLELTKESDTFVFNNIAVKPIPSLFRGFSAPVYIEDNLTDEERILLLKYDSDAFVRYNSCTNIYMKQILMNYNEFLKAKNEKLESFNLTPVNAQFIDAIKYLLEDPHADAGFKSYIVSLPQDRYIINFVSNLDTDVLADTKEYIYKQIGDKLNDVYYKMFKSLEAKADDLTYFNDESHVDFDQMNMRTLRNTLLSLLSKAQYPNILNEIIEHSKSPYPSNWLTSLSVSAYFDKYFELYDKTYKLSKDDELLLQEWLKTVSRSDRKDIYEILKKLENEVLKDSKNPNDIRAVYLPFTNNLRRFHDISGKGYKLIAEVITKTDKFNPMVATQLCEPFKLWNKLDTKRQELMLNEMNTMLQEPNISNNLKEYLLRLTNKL
assay.summary: malaria alanyl aminopeptidase activity blockers – biochemical, fluorogenic H-Leu-NHMec substrate, 1536-well (AID 1445);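 note: plate controls were DMSO full reaction for no effect and no enzyme background for full effect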
experimental.parameters: recombinant M1AAP, H-Leu-NHMec fluorogenic kinetic assay; at 30 µM, hits give high values unless noted
Hit rate of the full screen: of about 220,000 compounds, about 910 (0.41%) were called active. This excerpt belongs to a sample that is enriched for actives. Measured potencies and affinities stand elsewhere.
Reported inhibition values follow for various compounds
assay.readout: inhibition

compound="CN1CCc2c(sc3c2C(=O)NC(c2cccs2)N3)C1 (stereo unspecified)" reported_value="11.5% (inactive)"
compound=Cn1c(SCC(=O)N(Cc2ccccc2)C(C)(C)C)nc2ccccc21 reported_value="-3.33% (inactive)"
compound=O=C(Oc1c(Cl)cc(Cl)c2ccccc12)N1CCCC1 reported_value="13.6% (inactive)"
compound=O=C1OCC=C1NNC(=O)c1cccnc1 reported_value="4.75% (inactive)"
compound=Cn1nc(C(C)(C)C)cc1NC(=O)Nc1ccc(F)cc1F reported_value="6.33% (inactive)"
compound=COc1cc(NC(C)=O)ccc1-c1cc2ccccc2oc1=O reported_value="4% (inactive)"
compound=C=C(Br)Cn1c(CCC)nc2ccccc21 reported_value="-1.16% (inactive)"
compound=CCOc1c(Cl)cnn(-c2ccc(C)cc2)c1=O reported_value="-0.82% (inactive)"
compound=COc1ccc(C(=O)NNC(=O)CCC(=O)Nc2cc(C)on2)cc1 reported_value="6.61% (inactive)"
compound=Cc1ccc(C(=O)Nc2nc(=O)n(C(=O)C3CC3)s2)cc1 reported_value="4.6% (inactive)"
compound=O=C(Cn1cccc1C(=O)c1ccccc1)NCc1ccccn1 reported_value="4.68% (inactive)"
compound=CCC(=O)c1ccc(N2CCN(S(=O)(=O)c3ccccc3)CC2)c(F)c1 reported_value="-2.32% (inactive)"
compound="O=C(c1ccc(C(F)(F)F)cc1)C1CCCN(C(=O)CN2C(=O)CSC2=O)C1 (stereo unspecified)" reported_value="-2.21% (inactive)"
compound=O=[N+]([O-])c1ccc(Cl)c(-c2ccc(/C=N/c3c(-c4ccco4)nc4ccccn34)o2)c1 reported_value="6.65% (inactive)"
compound=COc1cccc(OC)c1C(=O)Nn1c(C2CCC2)nc2ccccc2c1=O reported_value="1.68% (inactive)"
compound=Cn1cnc2c(N/N=C/c3cccs3)ncnc21 reported_value="7.29% (inactive)"
compound=Cc1ccc(-c2nc3cc(N)ccc3o2)cc1 reported_value="6.2% (inactive)"
compound=Fc1cccc(/C=N/Nc2ncnc3nc[nH]c23)c1 reported_value="17.8% (inactive)"
compound=Cc1onc(-c2ccncc2)c1C(=O)O reported_value="0.4% (inactive)"
compound=Clc1cnc(N/N=C/c2cccs2)c(Cl)c1 reported_value="4.04% (inactive)"
compound=Cc1nc2ccccc2c(=O)n1NC(=O)C1CCCCC1 reported_value="0.92% (inactive)"
compound=CSc1n[nH]c(NC(C)=O)n1 reported_value="2.22% (inactive)"
compound=Cc1cccc(NC(=O)c2ccccc2OCC(=O)c2ccc(F)cc2)c1 reported_value="3.15% (inactive)"
compound="Cc1ccc(C)c(-n2c(SCC(=O)NC(C(=O)O)C(C)C)nnc2-c2cccc(Cl)c2)c1 (stereo unspecified)" reported_value="0.37% (inactive)"
compound=CC(C)NCc1c(O)c(Br)cc2oc3c(c12)CCCC3 reported_value="9.95% (inactive)"
compound=C=CCn1c(SCC(=O)C23CC4CC(CC(C4)C2)C3)nc(O)cc1=O reported_value="5.12% (inactive)"
compound=O=C(c1cccnc1)N1CCN(c2ccccc2Cl)CC1 reported_value="-11.5% (inactive)"
compound=Cn1c(=O)c2nc(Cl)c(-c3ccccc3)nc2n(C)c1=O reported_value="4.55% (inactive)"
compound=Oc1c(Br)cc2oc3c(c2c1CNCc1ccccc1)CCCC3 reported_value="33.9% (active)"
compound=COc1ccc(NC(=O)CSc2c(C)n[nH]c2C)cc1 reported_value="0.25% (inactive)"
compound=O=C(Nn1c(-c2ccccc2)nc2ccccc2c1=O)C1CCC1 reported_value="8.13% (inactive)"
compound=Cc1ccc(C(=O)Nc2nc(=O)n(C(=O)c3ccccc3C)s2)cc1 reported_value="4.83% (inactive)"
compound=O=c1c(-c2nc3ccccc3s2)cccn1Cc1ccc(Cl)cc1 reported_value="2.06% (inactive)"
compound="C=CCn1c(COc2ccccc2)nnc1SC(C)C(=O)N/N=C/c1cc(Cl)ccc1O (stereo unspecified)" reported_value="46.5% (active)"
compound=Cc1nn(-c2ccc3ccccc3c2)c(=O)c2ccccc12 reported_value="0.56% (inactive)"
compound="CC(C)CN(C(=O)COC(=O)c1ccccc1Sc1ccccc1C#N)C1CCS(=O)(=O)C1 (stereo unspecified)" reported_value="-1.64% (inactive)"
